The compounds listed here are annotated with their IC50.
System: RPMI 1788 cells (B lymphocyte, human)
measurement-description: MTT cell proliferation assay, normal RPMI 1788 cells
Type: cell-based
test-parameters: normal human lymphoblastoid cells RPMI 1788, 72 h of exposition, read-out: Anti-proliferative activity IC50, RPMI 1788
Give just the number in µM; leave the unit off.

compound=Cc1cn(-c2cc(NC(=O)c3cccc(C(=O)N4CCN(C(=O)c5cccc(F)c5)CC4)c3)cc(C(F)(F)F)c2)cn1 readout=IC50 reported_value=29.4
compound=Cc1cn(-c2cc(NC(=O)c3ccc(C(=O)N4CCN(C(=O)c5cccc(F)c5)CC4)cc3)cc(C(F)(F)F)c2)cn1 readout=IC50 reported_value=24.1
compound=CNC(=O)c1cc(Oc2ccc(NC(=O)c3cccc(C(=O)Nc4cc(-n5cnc(C)c5)cc(C(F)(F)F)c4)c3)cc2)ccn1 readout=IC50 reported_value=21.9

Fill in: IC50 of CNC(=O)c1cc(Oc2ccc(NC(=O)Nc3ccc(Cl)c(C(F)(F)F)c3)cc2)ccn1 [Sorafenib, reference compound] is ___ 3.48

What value of IC50 has been recorded for this entry: `Cc1cn(-c2cc(NC(=O)c3cccc(C(=O)N4CCN(C(=O)c5ccccc5F)CC4)c3)cc(C(F)(F)F)c2)cn1` 26.6

Recorded IC50 of `Cc1cn(-c2cc(NC(=O)c3cccc(C(=O)Nc4cc(-n5cnc(C)c5)cc(C(F)(F)F)c4)c3)cc(C(F)(F)F)c2)cn1` , please. 13

What does the record list as IC50 for `Cc1cn(-c2cc(NC(=O)c3ccc(C(=O)N4CCN(C(=O)c5ccccc5F)CC4)cc3)cc(C(F)(F)F)c2)cn1` ? 24

Item under review: `CNC(=O)c1cc(Oc2ccc(NC(=O)c3ccc(C(=O)Nc4cccc(C(F)(F)F)c4)cc3)cc2)ccn1` . Reported IC50? 46

Given the entry `Cc1cn(-c2cc(NC(=O)c3cccc(C(=O)Nc4cc([N+](=O)[O-])ccc4C)c3)cc(C(F)(F)F)c2)cn1` , report its measured IC50. 2.36

Please give the measured IC50 for this compound: `CNC(=O)c1cc(Oc2ccc(NC(=O)c3cccc(C(=O)Nc4cccc(C(F)(F)F)c4)c3)cc2)ccn1` 13

Given the entry `O=C(Nc1cccc(C(F)(F)F)c1)c1cccc(C(=O)N2CCN(C(=O)c3ccccc3F)CC2)c1` , report its measured IC50. 24.9

May I ask what IC50 has been recorded for `O=C(Nc1cccc(C(F)(F)F)c1)c1cccc(C(=O)N2CCN(C(=O)c3cccc(F)c3)CC2)c1` ? 26.3

====

target-of-assay: EGFR (Homo sapiens, UniProt P00533)
Construct: purchased Promega
Sequence (P00533 25-1210): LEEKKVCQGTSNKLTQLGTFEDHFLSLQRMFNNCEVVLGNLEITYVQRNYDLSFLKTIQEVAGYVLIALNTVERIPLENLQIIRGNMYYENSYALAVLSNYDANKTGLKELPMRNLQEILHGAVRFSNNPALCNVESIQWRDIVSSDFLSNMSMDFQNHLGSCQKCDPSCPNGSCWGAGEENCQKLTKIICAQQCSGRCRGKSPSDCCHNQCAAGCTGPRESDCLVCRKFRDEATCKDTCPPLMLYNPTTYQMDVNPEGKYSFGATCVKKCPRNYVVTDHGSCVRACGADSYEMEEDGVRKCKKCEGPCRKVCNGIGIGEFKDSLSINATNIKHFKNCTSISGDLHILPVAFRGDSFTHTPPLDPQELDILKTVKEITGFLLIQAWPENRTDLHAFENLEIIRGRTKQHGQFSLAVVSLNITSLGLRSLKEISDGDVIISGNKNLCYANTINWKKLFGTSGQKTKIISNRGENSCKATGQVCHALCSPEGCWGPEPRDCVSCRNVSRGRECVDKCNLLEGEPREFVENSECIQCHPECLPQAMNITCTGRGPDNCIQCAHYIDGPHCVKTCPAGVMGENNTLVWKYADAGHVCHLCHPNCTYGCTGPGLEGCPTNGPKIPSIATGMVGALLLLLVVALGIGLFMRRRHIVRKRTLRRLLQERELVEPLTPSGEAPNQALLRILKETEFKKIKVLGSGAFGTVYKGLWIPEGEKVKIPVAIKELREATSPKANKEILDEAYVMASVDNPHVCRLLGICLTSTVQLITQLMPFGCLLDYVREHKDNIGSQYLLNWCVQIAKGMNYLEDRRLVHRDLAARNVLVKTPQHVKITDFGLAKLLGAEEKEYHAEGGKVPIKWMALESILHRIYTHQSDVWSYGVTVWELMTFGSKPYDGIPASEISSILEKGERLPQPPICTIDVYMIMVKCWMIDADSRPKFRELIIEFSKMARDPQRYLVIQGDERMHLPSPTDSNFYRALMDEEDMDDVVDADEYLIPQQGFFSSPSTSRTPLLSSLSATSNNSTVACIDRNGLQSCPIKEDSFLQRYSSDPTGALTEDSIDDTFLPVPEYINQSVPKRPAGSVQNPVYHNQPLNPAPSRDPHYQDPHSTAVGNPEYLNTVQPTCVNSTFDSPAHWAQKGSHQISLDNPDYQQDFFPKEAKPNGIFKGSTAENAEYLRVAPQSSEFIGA
measurement-description: ADP-Glo kinase assay, EGFR
Assay type: biochemical
readout: inhibition at 10 µM (%)
Number only, in %; omit the unit.

molecule_smiles=Cc1cn(-c2cc(NC(=O)c3cccc(C(=O)N4CCN(C(=O)c5ccccc5F)CC4)c3)cc(C(F)(F)F)c2)cn1 reported_value=21
molecule_smiles=Cc1cn(-c2cc(NC(=O)c3cccc(C(=O)Nc4cccc(C(F)(F)F)c4)c3)cc(C(F)(F)F)c2)cn1 reported_value=0
molecule_smiles=O=C(Nc1cccc(C(F)(F)F)c1)c1cccc(C(=O)N2CCN(C(=O)c3ccccc3F)CC2)c1 reported_value=14
molecule_smiles=COc1ccc(C(=O)N2CCN(C(=O)c3ccc(C(=O)Nc4cccc(C(F)(F)F)c4)cc3)CC2)cc1 reported_value=4
molecule_smiles=Cc1cn(-c2cc(NC(=O)c3cccc(C(=O)Nc4cc(-n5cnc(C)c5)cc(C(F)(F)F)c4)c3)cc(C(F)(F)F)c2)cn1 reported_value=1
molecule_smiles=Cc1cn(-c2cc(NC(=O)c3ccc(C(=O)Nc4cccc(C(F)(F)F)c4)cc3)cc(C(F)(F)F)c2)cn1 reported_value=0
molecule_smiles=Cc1cn(-c2cc(NC(=O)c3ccc(C(=O)Nc4cc([N+](=O)[O-])ccc4C)cc3)cc(C(F)(F)F)c2)cn1 reported_value=2

Kindly consider the entry below.
Reported inhibition at 10 µM for EGFR (Homo sapiens, UniProt P00533), given `O=C(Nc1cccc(C(F)(F)F)c1)c1cccc(C(=O)N2CCN(C(=O)c3cccc(F)c3)CC2)c1` ? 90

Cited source: paper PMC10046946
